EXPERIMENT_NOTES: Selective inhibition of PDE5 versus PDE6 in retinal rod
ASSAY_METRIC: Ratio

INSERT INTO results (compound, test_value) VALUES
  ('CN1CCN(C(=O)c2ccc(-c3ccc(C(=O)N4Cc5c(nc6ccccc6c5O)C4c4ccc5c(c4)CCO5)o3)cc2)CC1 (centres undefined)', 13);

P: CN1CCN(C(=O)c2ccc(-c3ccc(C(=O)N4Cc5c(nc6ccccc6c5O)C4c4ccc5c(c4)OCO5)o3)cc2)CC1 (single isomer, unassigned; (-))
Q: O=C(c1cc2ccc(O)cc2o1)N1Cc2c(nc3ccccc3c2O)C1c1ccc2c(c1)CCO2 (centres undefined)
R: O=C(c1ccc(-c2ccncc2)o1)N1Cc2c(nc3ccccc3c2O)C1c1ccc2c(c1)OCO2 (centres undefined)
[ask] Order field: Ratio | Direction: descending (largest first) State the ranking by listing the labels in the requested order.
[reply] Q, R, P

* * *

EXPERIMENT_NOTES: Selective inhibition of PDE5 versus PDE6 in retinal cone
ASSAY_METRIC: Ratio

INSERT INTO measurements (compound, assay_metric, test_value) VALUES
  ('O=C(c1cc2ccc(O)cc2o1)N1Cc2c(nc3ccccc3c2O)C1c1ccc2c(c1)OCO2 (configuration not stated)', 'Ratio', 29),
  ('CN1CCN(C(=O)c2ccc(-c3ccc(C(=O)N4Cc5c(nc6ccccc6c5O)C4c4ccc5c(c4)OCO5)o3)cc2)CC1 (racemic)', 'Ratio', 2),
  ('CN1CCN(C(=O)c2ccc(-c3ccc(C(=O)N4Cc5c(nc6ccccc6c5O)C4c4ccc5c(c4)CCO5)o3)cc2)CC1 (configuration not stated)', 'Ratio', 12),
  ('CN1CCN(C(=O)c2ccc(-c3ccc(C(=O)N4Cc5c(nc6ccccc6c5O)C4c4ccc5c(c4)OCO5)o3)cc2)CC1 (single isomer, unassigned; (-))', 'Ratio', 13.2),
  ('O=C(c1cc2ccc(O)cc2o1)N1Cc2c(nc3ccccc3c2O)C1c1ccc2c(c1)CCO2 (configuration not stated)', 'Ratio', 646);

1: O=C(c1ccc(-c2ccncc2)o1)N1Cc2c(nc3ccccc3c2O)C1c1ccc2c(c1)OCO2 (configuration not stated)
2: O=C(c1ccc(-c2cccnc2)o1)N1Cc2c(nc3ccccc3c2O)C1c1ccc2c(c1)OCO2 (configuration not stated)
[ask] I'm curious whether 1 or 2 has the smaller Ratio number. Which is it? Answer with the label corresponding to your selection.
[reply] 1

* * *

TARGET_SYSTEM: cGMP-specific 3',5'-cyclic phosphodiesterase (Homo sapiens, UniProt O76074)
EXPERIMENT_NOTES: Inhibitory activity against Phosphodiesterase 5 (PDE5) was evaluated
pKi: −log10 of the molar value.
ASSAY_METRIC: pKi

1: O=C(c1ccc(-c2cccnc2)o1)N1Cc2c(nc3ccccc3c2O)C1c1ccc2c(c1)CCO2 (configuration not stated)
2: O=C(c1ccc(-c2cccc(C(F)(F)F)c2)o1)N1Cc2c(nc3ccccc3c2O)C1c1ccc2c(c1)OCO2 (configuration not stated)
[ask] // compare measured pKi, left 1 , right 2 , return larger Answer with the label corresponding to your selection.
[reply] 1

A: O=C(c1ccc(-c2ccco2)o1)N1Cc2c(nc3ccccc3c2O)C1c1ccc2c(c1)OCO2 (configuration not stated)
B: O=C(c1ccc(-c2cccnc2)o1)N1Cc2c(nc3ccccc3c2O)C1c1ccc2c(c1)OCO2 (configuration not stated)
[ask] // compare measured pKi, left A , right B , return larger Answer with the label corresponding to your selection.
[reply] B
(B: 9.82, A: 8.33)

* * *

TARGET_SYSTEM: cGMP-specific 3',5'-cyclic phosphodiesterase (Homo sapiens, UniProt O76074)
EXPERIMENT_NOTES: Inhibitory activity against Phosphodiesterase 5 (PDE5) was evaluated
pKi: −log10 of the molar value.
ASSAY_METRIC: pKi

P: CN1CCN(C(=O)c2ccc(-c3ccc(C(=O)N4Cc5c(nc6ccccc6c5O)C4c4ccc5c(c4)OCO5)o3)cc2)CC1 (racemic)
Q: O=C(c1ccc(-c2ccc(OCCN3CCCC3)cc2)o1)N1Cc2c(nc3ccccc3c2O)C1c1ccc2c(c1)OCO2 (stereo not drawn)
[ask] I'm curious whether P or Q has the smaller pKi number. Which is it? Answer with the label corresponding to your selection.
[reply] P

* * *

TARGET_SYSTEM: cGMP-specific 3',5'-cyclic phosphodiesterase (Homo sapiens, UniProt O76074)
EXPERIMENT_NOTES: Inhibitory activity against Phosphodiesterase 5 (PDE5) was evaluated
pKi: −log10 of the molar value.
ASSAY_METRIC: pKi

These solved cases illustrate the format of a correct answer.
INSERT INTO measurements (molecule, assay_metric, test_value) VALUES
  ('O=C(c1ccccc1)N1Cc2c(nc3ccccc3c2O)C1c1ccc2c(c1)OCO2 (stereo unspecified)', 'pKi', 8.60),
  ('CN1CCN(C(=O)c2ccc(-c3ccc(C(=O)N4Cc5c(nc6ccccc6c5O)C4c4ccc5c(c4)OCO5)o3)cc2)CC1 (single isomer, unassigned; (-))', 'pKi', 9.70);

P: O=C(c1ccc(-c2ccccc2)o1)N1Cc2c(nc3ccccc3c2O)C1c1ccc2c(c1)OCO2 (stereo unspecified)
Q: O=C(c1ccc(-c2ccncc2)o1)N1Cc2c(nc3ccccc3c2O)C1c1ccc2c(c1)OCO2 (stereo unspecified)
R: O=C(c1ccc(-c2ccc(O)cc2)o1)N1Cc2c(nc3ccccc3c2O)C1c1ccc2c(c1)OCO2 (stereo unspecified)
[ask] Order field: pKi | Direction: descending (largest first) State the ranking by listing the labels in the requested order.
[reply] Q, R, P

1: CS(=O)(=O)Nc1ccc(-c2ccc(C(=O)N3Cc4c(nc5ccccc5c4O)C3c3ccc4c(c3)OCO4)o2)cc1 (stereo unspecified)
2: O=C(c1ccc(-c2ccsc2)o1)N1Cc2c(nc3ccccc3c2O)C1c1ccc2c(c1)OCO2 (stereo unspecified)
3: COc1ccc(-c2ccc(C(=O)N3Cc4c(nc5ccccc5c4O)C3c3ccc4c(c3)OCO4)o2)cc1 (stereo unspecified)
4: CN(C)c1ccc(-c2ccc(C(=O)N3Cc4c(nc5ccccc5c4O)C3c3ccc4c(c3)OCO4)o2)cc1 (stereo unspecified)
[ask] Order field: pKi | Direction: descending (largest first) State the ranking by listing the labels in the requested order.
[reply] 1, 2, 3, 4
(1: 9.62, 2: 9.15, 3: 8.77, 4: 8.43)

a: O=C(c1ccc(-c2cccc([N+](=O)[O-])c2)o1)N1Cc2c(nc3ccccc3c2O)C1c1ccc2c(c1)OCO2 (stereo unspecified)
b: O=C(c1ccc(Br)o1)N1Cc2c(nc3ccccc3c2O)C1c1ccc2c(c1)OCO2 (stereo unspecified)
[ask] // compare measured pKi, left a , right b , return larger Answer with the label corresponding to your selection.
[reply] a
(a: 8.89, b: 8.68)
